These entries and their values trace back to PubChem BioAssay (NCI).

Items are presented alongside their recorded growth.
# System: MDA-MB-468 breast
# MEASUREMENT_PROTOCOL: NCI-60 one-dose screen, 48 h (100 = growth as untreated, 0 = no growth, -100 = all killed)
# CONDITION_SUMMARY: 10 µM unless noted
This is part of a sample that, as a whole, favours compounds with a hit. Of some 83,000 tested, about 20% had one in any assay.
Answer format: numeric, % implied, no suffix.

Solved cases (5 shown):
> print(dat)
                                   compound  measure  quantity.unit  recorded.measurement
1  c1ccc(CC(NCCNC(Cc2ccccc2)c2ccccc2)c2ccccc2)cc1 (configuration not stated)   growth              %                 -32.9
2  CCC(C)CC(CC)NCCN1CCN(C(CC)CC(C)CC)C1=S (configuration not stated)   growth              %                 -43.6
3             CN1CCc2c(c3ccccc3c3ccccc23)C1   growth              %                  30.7
4  O=C1c2c(O)cc(O)cc2-c2c(-c3ccc(O)cc3)oc3cc(O)cc1c23   growth              %                  46.4
5    N#Cc1cnc(NCCc2ccncc2)nc1-n1cnc2ccccc21   growth              %                  74.2

I have this compound here, `COC(=O)C1=NNC(=S)N(c2cc(C)[nH]n2)C(=O)C1` , and I need its recorded growth.
108

I have this compound here, `Cn1cc(-c2csc(-c3cn(C)c4ncccc34)n2)c2ccccc21` , and I need its recorded growth.
18

I have this compound here, `C[C@]12CC[C@@H]3c4ccc(O)cc4CC[C@H]3[C@@H]1CC[C@@H]2NS(=O)(=O)c1cccc(Br)c1` , and I need its recorded growth.
53.8

I have this compound here, `O=C(Nc1nc(-c2ccc(Br)cc2)cs1)c1cc(-c2ccc(Br)cc2)nc2ccc(Cl)cc12` , and I need its recorded growth.
102

I have this compound here, `CN(C)c1ccc(/C=C\c2ccnc3ccccc23)cc1` , and I need its recorded growth.
31.2

I have this compound here, Cc1[nH]c(C2CC(c3ccc(C(F)(F)F)c(F)c3)=NN2C)c(C)c1C(=O)NCC(F)(F)F (configuration not stated) , and I need its recorded growth.
81.6

I have this compound here, Cc1ccc(NC(C(=O)c2ccccc2)c2ccccc2)cc1 (configuration not stated) , and I need its recorded growth.
8.06

I have this compound here, `COc1cc(CCC[P+](c2ccccc2)(c2ccccc2)c2ccccc2)c(OC)c(OC)c1OC` , and I need its recorded growth.
30.3

I have this compound here, `CC1(O)CCCCCC1` , and I need its recorded growth.
100

I have this compound here, `COc1ccc(-c2cc(=O)oc3ccc(Cl)cc23)cc1F` , and I need its recorded growth.
26.5

I have this compound here, `O=C1CC(c2cccc(-c3cccnc3)c2)=Nc2ccc(Br)cc2N1` , and I need its recorded growth.
10.5

====

# System: MDA-MB-468 breast
# MEASUREMENT_PROTOCOL: NCI-60 one-dose screen, 48 h (100 = growth as untreated, 0 = no growth, -100 = all killed)
# CONDITION_SUMMARY: 10 µM unless noted
The panel holds about 83,000 compounds, 20% with a hit somewhere; the sample as a whole holds those more often.
Would you mind sorting the entries by growth according to these classes? Low = under -20%, Medium = from -20% up to 90%, High = 90% and over

> print(dat)
                                   compound  experimental.system  assigned.label
1  CC/C(=C(/c1ccc(Cl)cc1)c1ccc(OCCN2CCCCC2)cc1)c1ccc(OC)cc1    MDA-MB-468 breast          Medium
2         NC(=O)c1cccc(-c2ccccc2N2CCCCC2)c1    MDA-MB-468 breast            High
3  CCCCCCCCCCCCNC(=O)[C@H]1CSC(c2ccc(OC)c(F)c2)N1 (stereo not given in full)    MDA-MB-468 breast             Low
4  C(=C\c1cn(-c2ccccc2)nc1-c1ccccc1)/c1nnc(-c2c[nH]c3ccccc23)o1    MDA-MB-468 breast          Medium
5  COc1ccc(-c2nn(-c3ccc(S(C)(=O)=O)cc3)cc2/C=N/O)cc1    MDA-MB-468 breast            High

Next compound, please.
Which growth band matches `CNC(=S)Sc1ccc([N+](=O)[O-])cc1[N+](=O)[O-]` ?
Medium
